Measured drug sensitivity score values are reported for all entries that follow.
System: MCF-10A
ASSAY TEXT: drug sensitivity score (DSS), CellTiter-Glo (DSS (AUC-based score)); higher = stronger drug effect (viability inhibition or cytotoxicity); extreme values may be limits of the assay
CONDITION NOTES: incubation time: 72 h
I'd appreciate a reply containing only the number, no unit.

COMPOUND	drug sensitivity score
Cn1nnc2c(C(N)=O)ncn2c1=O [Temozolomide]	0

Query: drug sensitivity score lookup needed for CC(C)C(=O)Nc1ccc([N+](=O)[O-])c(C(F)(F)F)c1 [Flutamide] , thanks.
Reply: 0

Query: Field request: drug sensitivity score | item: `CC[C@@H]1C(=O)N(C)c2cnc(Nc3ccc(C(=O)N[C@H]4CC[C@H](N5CCN(CC6CC6)CC5)CC4)cc3OC)nc2N1C(C)C`
Reply: 8.92

Query: Give the measured drug sensitivity score of `O=NN(CCCl)C(=O)NC1CCCCC1` .
Reply: 0

Query: I have this compound here, `NC(=O)c1cccc2cn(-c3ccc([C@@H]4CCCNC4)cc3)nc12` , and I need its recorded drug sensitivity score.
Reply: 0

Query: drug sensitivity score for `CO[C@H]1C[C@@H]2CC[C@@H](C)[C@@](O)(O2)C(=O)C(=O)N2CCCC[C@H]2C(=O)O[C@H]([C@H](C)C[C@@H]2CC[C@@H](O)[C@H](OC)C2)CC(=O)[C@H](C)/C=C(\C)[C@@H](O)[C@@H](OC)C(=O)[C@H](C)C[C@H](C)/C=C/C=C/C=C/1C` ?
Reply: 0

Source of measurements: the supplement of paper PMC4862054
